biological target: human PD-L1/His fusion protein (human, UniProt Q9NZQ7 19-239); assay: BLI off-rate; test group 2
Sequence (Q9NZQ7 19-239 limits assumed): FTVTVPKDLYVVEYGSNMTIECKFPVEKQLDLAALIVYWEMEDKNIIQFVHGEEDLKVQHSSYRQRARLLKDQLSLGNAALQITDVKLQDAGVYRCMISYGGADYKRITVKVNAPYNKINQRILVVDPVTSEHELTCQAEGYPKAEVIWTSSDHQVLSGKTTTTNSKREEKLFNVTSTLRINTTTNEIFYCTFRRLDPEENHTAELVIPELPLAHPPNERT
# Off-Rate Ratio to that of EM0005-90c values compiled below

{"BINDER": "HuEM0005-90-8 (antibody, human IgG1, V domains shown) VH: EVQLVQSGAEVKKPGASVKVSCKTSGYTFTSHSINWVRQATGQGLEWIGYMYIGNGYTEYNEKFKGRATLTSNTSISTAYMELSSLRSEDTAVYYCAKITPVVAPYVMDYWGQGTSVTVSS VL: DIQMTQSPSFLSASVGDRVTITCKASQDVGTAVAWYQQKPGKAPKLLIYWASTRHTGVPSRFSGSGSGTEFTLTISSLQPEDFATYYCQQYSSYPYTFGQGTKLEIK", "UNIT_ABBREVIATION": "%", "Off-Rate Ratio to that of EM0005-90c": 102}
{"BINDER": "HuEM0005-90-9 (antibody, human IgG1, V domains shown) VH: EVQLVQSGAEVKKPGASVKVSCKASGYTFTSHSINWVRQATGQGLEWMGYMYIGNGYTEYNEKFKGRVTLTSNTSISTAYMELSSLRSEDTAVYYCAKITPVVAPYVMDYWGQGTSVTVSS VL: DIVMTQSPSFLSASVGDRVTITCKASQDVGTAVAWYQQKPGKAPKLLIYWASTRHTGVPSRFSGSGSGTDFTLTISSLQPEDFATYYCQQYSSYPYTFGQGTKLEIK", "UNIT_ABBREVIATION": "%", "Off-Rate Ratio to that of EM0005-90c": 109}
{"BINDER": "HuEM0005-90-7 (antibody, human IgG1, V domains shown) VH: EVQLVQSGAEVKKPGASVKVSCKTSGYTFTSHSINWVRQATGQGLEWMGYMYIGNGYTEYNEKFKGRVTMTSNTSISTAYMELSSLRSEDTAVYYCAKITPVVAPYVMDYWGQGTSVTVSS VL: DIQMTQSPSFLSASVGDRVTITCKASQDVGTAVAWYQQKPGKAPKLLIYWASTRHTGVPSRFSGSGSGTEFTLTISSLQPEDFATYYCQQYSSYPYTFGQGTKLEIK", "UNIT_ABBREVIATION": "%", "Off-Rate Ratio to that of EM0005-90c": 135}

Sourced from patent US20230242675A1
